- test: small-molecule binders of probe aLefty1, primary screen, biochemical, small-molecule microarray, 635/667 nm fluorescence (AID 1153);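 also: score merges spot fluorescence with signal-to-noise ratio from the scanned slide images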
- assay_setup: higher = more signal
Please respond with reported composite z-score for every item in the list.
Form field (numeric): enter value without unit.

Query string: Data request, read-out composite z-score, for `CC(=O)NCCCC[C@@H]1NC(=O)[C@@H]2C[C@H](C(=O)NCCCCCCN(C)C)[C@H](c3ccc(O)cc3)N2C1=O`
Result string: -0.0619

Query string: `C=CCN1C(=O)[C@]2(O[C@H](CCn3cc(CCO)nn3)[C@@H]([Si](C)(C)c3ccc(OC)cc3)[C@@H]2C)c2cc(NC(=O)c3ccc(OC)cc3)ccc21` , same question.
Result string: 0.13

Query string: `CC(C)NC(=O)[C@@]1(Cc2ccccc2I)c2ccccc2C(=O)N(C2CCCCC2)[C@H]1c1ccc(CO)cc1` , same question.
Result string: 0.149

Query string: `C#CCCCON=C1C[C@@H](O)[C@@H](O)[C@@H]2[C@@H]3C(=O)N(Cc4ccc5c(c4)OCO5)C(=O)[C@@H]3CC[C@H]12` , same question.
Result string: -0.161

Query string: `CCCC=C(CCC)[C@@H](NC(=O)c1ccccc1)c1ccccc1` , same question.
Result string: 0.221

Query string: `CCC(=O)[C@]12O[C@@]3([C@@H]4C(=O)OCC[C@@H]41)N(CC)C(C)=C(C(=O)OC)[C@@H](c1ccccc1)N3C2=O` , same question.
Result string: -0.29

Query string: CC(C)[C@H]1NC(=O)[C@@]23C(=O)N[C@@H](Cc4ccccc4)C2[C@H](C)[C@@]2(C)O[C@H]2C3/C=C/C/C=C\CNC(=O)[C@H](C)NC1=O (stereo partly drawn) , same question.
Result string: -0.381

Query string: `COCCOC(=O)N1C(=O)[C@@]2(c3cc(C#CCNC(N)=O)ccc31)[C@H](C(=O)N1CCCCCCC1)[C@H]1C(=O)O[C@H](c3ccccc3)[C@H](c3ccccc3)N1[C@@H]2c1ccccc1OCCO` , same question.
Result string: 1.28

Query string: `COCCCNC(=O)[C@@H]1c2ccccc2C(=O)N(CC23CC4CC(CC(C4)C2)C3)[C@H]1c1ccc(CO)cc1` , same question.
Result string: 0.276

Query string: `COC(=O)C[C@H]1O[C@]2(C(=O)N(C)c3ccccc32)[C@@H](C)[C@@H]1[Si](C)(C)c1ccc(OC)cc1` , same question.
Result string: -0.139

Query string: `C#C[C@H](O[Si](C#Cc1ccccc1)(C(C)C)C(C)C)c1ccccc1` , same question.
Result string: 0.22

Query string: `Cc1ccc(N2C(=O)c3ccccc3[C@@H](C(=O)NCC(F)(F)F)[C@@H]2c2ccc(CO)cc2)nc1` , same question.
Result string: -0.0099

Query string: `O=C(CS)NCCCCCNC(=O)[C@H]1C[C@H]2C(=O)N3CCC[C@H]3C(=O)N2[C@H]1c1ccc(O)cc1` , same question.
Result string: 0.357

Query string: `COc1cc(CO)cc(I)c1O[C@H]1C=C(C(=O)NCCO)C[C@@H](NCCc2c[nH]c3ccccc23)[C@@H]1O` , same question.
Result string: 0.335

Query string: `O=[N+]([O-])c1ccc(C[n+]2ccc3ccc(O)cc3c2)o1` , same question.
Result string: -0.283

Query string: O=C(NCC(O)CO)[C@]1(Cc2ccccc2)N=C(c2ccc(OCCCO)cc2)O[C@@H]1c1ccccc1 (stereo partly drawn) , same question.
Result string: 1.39

Query string: C[C@H]1C2[C@H](Cc3ccccc3)NC(=O)[C@]23C(=O)N[C@H](Cc2ccccc2)C(=O)N[C@@H](Cc2ccccc2)C(=O)NC/C=C\C/C=C/C3[C@@H]2O[C@]12C (stereo partly drawn) , same question.
Result string: 0.305

Query string: `COCCCNC(=O)[C@@]1(Sc2ccc(C)cc2)CC(=O)N(Cc2cc(C(F)(F)F)cc(C(F)(F)F)c2)[C@@H]1c1ccc(CO)cc1I` , same question.
Result string: 0.162

Query string: `CCN1C(C)=C(C(=O)OC)[C@@H](c2ccccc2)N2C(=O)[C@](O)(C(=O)OC)[C@@H](c3ccccc3)C(C(C)=O)=C12` , same question.
Result string: -0.0111

Query string: `CSCC[C@@H]1NC(=O)CC=C[C@@H](C)COC(=O)[C@H](CCSC)NC(=O)CC=C[C@@H](C)COC1=O` , same question.
Result string: -0.0559

Query string: `COCC(=C=CC[C@H](O)c1ccc(OCCO)cc1)C[C@H](O)c1ccccn1` , same question.
Result string: -0.194

Query string: `CO[C@@H]1COC(=O)[C@@H]2CCCN2C(=O)CC=C[C@@H](C)[C@H](OC)COC(=O)[C@@H]2CCCN2C(=O)CC=C[C@H]1C` , same question.
Result string: -0.0984

Query string: `COc1ccc([Si](C)(C)[C@@H]2[C@@H](CCO)O[C@]3(C(=O)N(Cc4ccc(NC(=O)[C@H](C)O)cc4)c4ccccc43)[C@H]2C)cc1` , same question.
Result string: 0.0378

Query string: `Cc1ccc(S(=O)(=O)N2[C@@H](c3ccccc3)C(C(=O)O)=CC[C@H]2c2ccccc2)cc1` , same question.
Result string: -0.0501

Query string: `CCN1C(C)=C(C(=O)OC)[C@@H](c2ccccc2)N2C(=O)[C@@]3(C(=O)OC)O[C@@]12[C@@H]1C(=O)N(c2ccccc2)C(=O)[C@@H]13` , same question.
Result string: 0.0166

Query string: `O=C/C=C/c1ccc(/C=C/c2ccccc2)cc1` , same question.
Result string: 0.25

Query string: `COCCOC(=O)N1C(=O)[C@@]2(c3cc(C#CC4=CCCCC4)ccc31)[C@H](C(=O)NC[C@H](O)c1ccccc1)[C@H]1C(=O)O[C@H](c3ccccc3)[C@H](c3ccccc3)N1[C@@H]2c1ccc(OCCO)cc1` , same question.
Result string: 0.197

Query string: `COCCOC(=O)N1C(=O)[C@@]2(c3cc(C#CCNC(N)=O)ccc31)[C@H](c1ccc(OCCO)cc1)N1[C@H](c3ccccc3)[C@H](c3ccccc3)OC(=O)[C@H]1[C@@H]2C(=O)Nc1nc2ccccc2s1` , same question.
Result string: 0.0844
